All figures here come from paper PMC6663879.

# system under test: JMJD6^Δ363–403 (Homo sapiens)
# measurement notes: Standard MS-based hydroxylation assay (MALDI-TOF MS) of substrate peptides
# Format: biochemical
# Parameters: two more variants (aa 1–362, JMJD6^Δ363–403, and aa 1–343, JMJD6^Δ344–403); His6 (N); made in house; host or cells: Escherichia coli Rosetta2(DE3)
# test context: standard hydroxylation assay conditions, substrate peptide varied 0–400 μM; mean ± S.D. (n = 3); read-out: Km^app
Kindly supply the reported Km values for the records listed here.
Please give a number only; it is taken to be in µM.

// query What measured Km goes with SRDHKRSRSRERRRS [CROP311–325, fragment of SR protein CROP/LUC7L3] ?
// result 71

// query Param item = RSKKRKKSKSRS [RBM39_31–42] ; retrieve measured Km.
// result 56

// query Which Km is reported for this sequence? SRSRSRDRKRRSRSRDR [U2AF65_30–46, fragment of the RS region of U2AF65]
// result 78

// query # query: Km of entry ENRHRKRSHSRSRSR [U2AF65_21–35, fragment of the RS region of U2AF65]
// result 59

// query What value of Km has been recorded for this entry: RSKSPRRRRSHSR [SRSF11_286–298, fragment of SRSF11]
// result 41

// query Can you look up the measured Km of NPKRSRSREHRR [LUC7L2_267–278, reported JMJD6 substrate, fragment of SR protein LUC7L2, reference compound] for me?
// result 51

// query Looking for the measured Km of SKSRSRSHERKRS [RBM39_38–50, fragment of RBM39] , can you help?
// result 71

// query What does the record list as Km for RSRSGTRSPKKPSR [SRSF11_347–360, fragment of SRSF11] ?
// result 92

// query Need Km of RSPKRKLSRSPSPR [SRSF11_358–372, fragment of SRSF11] , thanks.
// result 76

// query State the recorded Km for this entry: DRKSYKHRSKSRDR [CROP357–370, fragment of SR protein CROP/LUC7L3]
// result 93

// query # get_value(readout='Km', item= SRRRSRSKSPFR [RBM39_121–132, fragment of RBM39] )
// result 99

// query // returns reported Km for input RDRRRRSKPLTRGAK [U2AF65_55–70, fragment of U2AF65]
// result 124

// query What does the data say about its Km? Entry: RKRSRSKERRRS [RBM39_71–82, fragment of RBM39]
// result 88

// query Please look up its Km: RKHRSRSRDRRRSKS [CROP341–355, fragment of SR protein CROP/LUC7L3]
// result 76

---

# system under test: JMJD6^Δ363–403 (Homo sapiens)
# measurement notes: Standard MS-based hydroxylation assay (MALDI-TOF MS) of substrate peptides
# Format: biochemical
# Set-up: two more variants (aa 1–362, JMJD6^Δ363–403, and aa 1–343, JMJD6^Δ344–403); His6 (N); made in house; host or cells: Escherichia coli Rosetta2(DE3)
# test context: 10 μM JMJD6^Δ363–403, 100 μM peptide, 100 μM Fe(II), 400 μM ascorbate, 500 μM 2OG, 50 mM HEPES-KOH pH 8.0, 37 °C, 30 min, MALDI-TOF MS; mean ± S.D. (n = 3)
reported metric: Hydroxylation (%)
# unit: % | format: bare number

// query Can you share its Hydroxylation? I mean this sequence: SRSRRRSHSKSR [SRSF11_271–282, fragment of SRSF11]
// result 33.6

// query Please report the recorded Hydroxylation for PRSRSRSRDRRRKE [Acinus S′447–460, fragment of Acinus S′] .
// result 25.6

// query Fill in the blank: the reported Hydroxylation of SKSRSRSHERKRS [RBM39_38–50, fragment of RBM39] is ____.
// result 79.0

// query # lookup: Hydroxylation of NPKRSRSREHRR [LUC7L2_267–278, reported JMJD6 substrate, fragment of SR protein LUC7L2, reference compound]
// result 98.5

// query Find the recorded Hydroxylation belonging to SRDHKRSRSRERRRS [CROP311–325, fragment of SR protein CROP/LUC7L3] and report it.
// result 89.3

// query Request the reported Hydroxylation associated with SRERRKLSRSRSR [LUC7L1_287–298, fragment of LUC7L1]
// result 18.3
